Entries and their measured normalized GFP fluorescence follow.
system: Staphylococcus aureus MW2 delta-mecA (mecA-); assay: normalized GFP fluorescence (growth of mecA- strain) (fraction of control range); higher = more growth of mecA- strain; conditions: compound concentration: 150 uM; cefoxitin: subinhibitory; fluorescent label: GFP
# print the numeric value only

Solved cases below.
compound="CC(C(=O)O)c1ccc(C(=O)c2cccs2)cc1 (stereo not given)" property="normalized GFP fluorescence" observed_measurement=0.344
compound="COc1cc(N)c(Cl)cc1C(=O)NC1CCN(CCCOc2ccc(F)cc2)CC1OC (stereo not given)" property="normalized GFP fluorescence" observed_measurement=0.458
compound="CC(CN1c2ccccc2Sc2ccccc21)N(C)C (stereo not given)" property="normalized GFP fluorescence" observed_measurement=-0.00976

Determine its reported normalized GFP fluorescence: Cc1ccnc2c1NC(=O)c1cccnc1N2C1CC1
0.755

Read off the recorded normalized GFP fluorescence for O=C1CCc2ccc(OCCCCN3CCN(c4cccc(Cl)c4Cl)CC3)cc2N1
0.0969

Give normalized GFP fluorescence for CC(C)/N=c1\cc2n(-c3ccc(Cl)cc3)c3ccccc3nc-2cc1Nc1ccc(Cl)cc1
0.344

Please report the measured normalized GFP fluorescence for Oc1cccc(O)c1
0.565

Tell me measured normalized GFP fluorescence for C[N+]1(C)[C@@H]2C[C@@H](OC(=O)C(O)(c3cccs3)c3cccs3)C[C@H]1[C@@H]1O[C@@H]12 [Tiotropium Bromide hydrate] please.
0.394

Fill in normalized GFP fluorescence for record CC(C)c1ccc2oc3nc(N)c(C(=O)O)cc3c(=O)c2c1
0.212

Given the compound O=C(NC[C@H]1CN(c2ccc(N3CCOCC3=O)cc2)C(=O)O1)c1ccc(Cl)s1 , write its reported normalized GFP fluorescence.
0.0017

These data points were gathered from the supplement of paper PMC7695840.
